// data source = ChEMBL document CHEMBL5058577

Tested on: HEK-293T
experimental_protocol: Multiplex assay against HEK293T
Format: toxicity, cell-based
condition_details: human, 24 h, 10 µM, compound concentration 10 uM, replicate 2
Please assign 0 whenever Population Mitotic Cells (%) is at or above 40%, and 1 whenever it is below.

compound: CN(C)CCCc1cc(C(=O)Nc2ccc(-c3ccncc3)cc2)ccc1O.Cl.Cl
class_name: 0
//
compound: O=C(NCC(=O)N1CC[C@H](N[C@H]2CC[C@@](O)(c3ccc(-c4ncccn4)cn3)CC2)C1)c1cccc(C(F)(F)F)c1 [PF-4136309]
class_name: 0
//
compound: CN(C)c1ccnc2sc3c(=O)n(N4CCCCCC4)cnc3c12
class_name: 1
//
compound: Cc1nc2ccc(Oc3ccc(F)cc3)cc2c(=O)n1C[C@H]1CCCN(C(C)C)C1.Cl
class_name: 1

// query # TODO verify Population Mitotic Cells (%) < 40% strictly for this compound: O=C1COc2nccc(-c3ccccc3F)c2CN1Cc1cc(C(F)(F)F)cc(C(F)(F)F)c1
// result 0
